System: human osteosarcoma cells (MG-63)
Assay: Cytotoxicity by SRB assay, osteosarcoma cells
Type: cell-based
Settings: MG-63, 72 h, mean±SD, listed as Our Product
property: IC50
Note to self: number, then unit, no commentary.

Inquiry: Please give the measured IC50 for this compound: O=C(O)c1cn(C2CC2)c2cc(N3CCN(CN4C(=O)/C(=C\c5ccc6ccccc6n5)N=C4c4ccccc4)CC3)c(F)cc2c1=O
Reply text: 3.38 µM

* * *

Test system: human prostate cancer cells (PC3)
Test: Cytotoxicity by SRB assay, prostate cancer cells
Assay type: cell-based
Settings: Homo sapiens, 72 h, PC-3, 72 h, mean±SD
property: IC50 (µM)
Expressed in µM, but write only the number.

Inquiry: Which measured IC50 belongs to COc1cccc2c1C(=O)c1c(O)c3c(c(O)c1C2=O)C[C@@](O)(C(=O)CO)C[C@@H]3O[C@H]1C[C@H](N)[C@H](O)[C@H](C)O1 [DOX, Doxorubicin, reference compound] , tested on human prostate cancer cells (PC3)?
Reply text: 7.6
